These data points were gathered from the RNAGym collection of RNA variant scans (doi:10.7554/elife.80360).

B1: CPEB3 Ribozyme (parent)
chain: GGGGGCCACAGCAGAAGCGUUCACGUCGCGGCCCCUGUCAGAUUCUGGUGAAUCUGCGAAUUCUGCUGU

Variants of: B1
TEST_SUMMARY: self-cleavage, relative activity (ratio to wild type); higher = more cleavage; co-transcriptional
rule met means recorded self-cleavage is 0.5 or above; rule not met means it is below 0.5.

Example results:
   mutant_name           cat
0    C57G U69C  rule not met
1     G2A U67A  rule not met
2    G11C A23U      rule met
3    A13C U20C  rule not met
4    A16U U38C      rule met

Query: Determine whether this variant has self-cleavage no lower than 0.5: G17C C24U
Reply: rule not met
